test-summary: Rat pharmacokinetic study
Type: in vivo, SD rat
test-parameters: PO 10 mg/kg vs IV 2 mg/kg
Examples of molecules with documented F follow.
Write the answer as a number in %, unit excluded.

[[record]]
chemical_smiles = "CCN(c1nc(-c2ccc(F)cc2)c(C#N)s1)c1c2nc(-c3cnc(N4CCCS4(=O)=O)nc3)ccc2nn1CC"
u = "%"
endpoint_result = 38.5


Per the record, CCN(c1nc(-c2ccc(F)cc2)c(C#N)s1)c1c2nc(-c3cnc(N4CCC(O)CC4)nc3)ccc2nn1CC has F of 16.6

Per the record, CCc1nc2c(C)cc(N3CCN(CC(=O)N4CC(O)C4)CC3)cn2c1N(C)c1nc(-c2ccc(F)cc2)c(C#N)s1 has F of 12

Per the record, CCN(c1nc(-c2ccc(F)cc2)c(C#N)s1)c1c2nc(-c3cnc(N4CCOCC4)nc3)ccc2nn1CC has F of 11.2

Per the record, CCN(c1nc(-c2ccc(F)cc2)c(C#N)s1)c1c2nc(-c3cnc(N4CC[C@@H](O)C4)nc3)ccc2nn1CC has F of 25.9

----------
Examples of compounds with documented Cmax follow.
test-summary: Rat pharmacokinetic study
Assay type: in vivo, SD rat
test-parameters: SD, plasma, IV 2 mg/kg
Description: SD rat pharmacokinetic study was performed on several compounds in Examples of the present disclosure through a single intravenous injection (IV, at a dose of 2 mg/kg) and a single oral administration (PO, at a dose of 10 mg/kg), and blood samples were taken before administration and 5 min, 15 min, 30 min, 1 h, 2 h, 4 h, 8 h, 12 h and 24 h after administration, respectively, to determine the plasma concentration of the compound for assay. […]
Write the answer as a number in ng/mL, unit excluded.

Illustrative cases are given below, each with its answer.
[[record]]
chemical_smiles = "CCN(c1nc(-c2ccc(F)cc2)c(C#N)s1)c1c2nc(-c3cnc(N4CCC(O)CC4)nc3)ccc2nn1CC"
endpoint_result = 3070

[[record]]
chemical_smiles = "CCN(c1nc(-c2ccc(F)cc2)c(C#N)s1)c1c2nc(-c3cnc(N4CCOCC4)nc3)ccc2nn1CC"
endpoint_result = 3480

[[record]]
chemical_smiles = "CCc1nc2c(C)cc(N3CCN(CC(=O)N4CC(O)C4)CC3)cn2c1N(C)c1nc(-c2ccc(F)cc2)c(C#N)s1"
endpoint_result = 8340

[[record]]
chemical_smiles = "CCN(c1nc(-c2ccc(F)cc2)c(C#N)s1)c1c2nc(-c3cnc(N4CC[C@@H](O)C4)nc3)ccc2nn1CC"
endpoint_result = 4380


Please find the next compound below.
Per the record, CCN(c1nc(-c2ccc(F)cc2)c(C#N)s1)c1c2nc(-c3cnc(N4CCCS4(=O)=O)nc3)ccc2nn1CC has Cmax of 2540

----------
test-summary: Rat pharmacokinetic study
Format: in vivo, SD rat
test-parameters: SD, plasma, PO 10 mg/kg
Examples of compounds with documented AUC(0-inf) follow.
Write the answer as a number in ng·h/mL, unit excluded.

[[record]]
chemical_smiles = "CCN(c1nc(-c2ccc(F)cc2)c(C#N)s1)c1c2nc(-c3cnc(N4CCCS4(=O)=O)nc3)ccc2nn1CC"
quantity_measured = "AUC(0-inf)"
endpoint_result = 9180

[[record]]
chemical_smiles = "CCc1nc2c(C)cc(N3CCN(CC(=O)N4CC(O)C4)CC3)cn2c1N(C)c1nc(-c2ccc(F)cc2)c(C#N)s1"
quantity_measured = "AUC(0-inf)"
endpoint_result = 2700

[[record]]
chemical_smiles = "CCN(c1nc(-c2ccc(F)cc2)c(C#N)s1)c1c2nc(-c3cnc(N4CC[C@@H](O)C4)nc3)ccc2nn1CC"
quantity_measured = "AUC(0-inf)"
endpoint_result = 18600

[[record]]
chemical_smiles = "CCN(c1nc(-c2ccc(F)cc2)c(C#N)s1)c1c2nc(-c3cnc(N4CCC(O)CC4)nc3)ccc2nn1CC"
quantity_measured = "AUC(0-inf)"
endpoint_result = 6720


Please find the next compound below.
Per the record, CCN(c1nc(-c2ccc(F)cc2)c(C#N)s1)c1c2nc(-c3cnc(N4CCOCC4)nc3)ccc2nn1CC has AUC(0-inf) of 9150

----------
assayed-system: hERG potassium channel (Homo sapiens (Human))
Sequence (Q12809 whole entry): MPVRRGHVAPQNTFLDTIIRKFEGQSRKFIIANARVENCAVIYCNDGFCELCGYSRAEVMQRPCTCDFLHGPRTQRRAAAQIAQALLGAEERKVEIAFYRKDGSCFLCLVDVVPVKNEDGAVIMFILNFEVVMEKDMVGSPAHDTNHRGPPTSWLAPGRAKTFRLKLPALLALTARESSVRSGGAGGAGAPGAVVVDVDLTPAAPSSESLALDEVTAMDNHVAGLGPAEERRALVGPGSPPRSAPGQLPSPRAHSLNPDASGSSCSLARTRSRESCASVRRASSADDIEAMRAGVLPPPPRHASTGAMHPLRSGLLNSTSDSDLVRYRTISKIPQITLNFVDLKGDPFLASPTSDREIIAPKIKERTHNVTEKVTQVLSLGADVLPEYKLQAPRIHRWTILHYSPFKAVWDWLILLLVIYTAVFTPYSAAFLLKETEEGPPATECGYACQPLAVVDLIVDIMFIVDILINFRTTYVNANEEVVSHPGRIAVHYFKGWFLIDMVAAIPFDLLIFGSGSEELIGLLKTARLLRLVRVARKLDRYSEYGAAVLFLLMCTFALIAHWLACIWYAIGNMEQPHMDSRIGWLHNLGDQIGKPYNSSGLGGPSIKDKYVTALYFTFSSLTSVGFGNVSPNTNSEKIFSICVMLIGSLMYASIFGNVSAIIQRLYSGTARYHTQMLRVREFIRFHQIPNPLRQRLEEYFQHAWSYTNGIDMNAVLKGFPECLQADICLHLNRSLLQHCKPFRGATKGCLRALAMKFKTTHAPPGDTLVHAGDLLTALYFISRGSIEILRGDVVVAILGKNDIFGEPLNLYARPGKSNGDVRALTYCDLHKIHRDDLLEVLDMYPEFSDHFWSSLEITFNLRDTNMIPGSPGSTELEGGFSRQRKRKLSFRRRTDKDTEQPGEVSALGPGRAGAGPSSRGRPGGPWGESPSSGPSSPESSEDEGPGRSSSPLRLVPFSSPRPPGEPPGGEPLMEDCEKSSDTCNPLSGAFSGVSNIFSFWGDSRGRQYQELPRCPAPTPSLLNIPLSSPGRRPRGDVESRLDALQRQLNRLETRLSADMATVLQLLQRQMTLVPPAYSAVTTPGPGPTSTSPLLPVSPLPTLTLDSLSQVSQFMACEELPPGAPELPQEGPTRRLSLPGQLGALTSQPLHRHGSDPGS
test-summary: hERG inhibition assay (manual whole-cell patch clamp)
Type: cell-based
test-parameters: hERG tail current, stable transfected cell line
pIC50: −log10 of the molar value.
quantity-measured: pIC50

[[record]]
chemical_smiles = "CCN(c1nc(-c2ccc(F)cc2)c(C#N)s1)c1c2nc(-c3cnc(N4CC[C@H](O)C4)nc3)ccc2nn1CC"
assayed_system = "hERG potassium channel (Homo sapiens (Human))"
endpoint_result = "< 4.52"

[[record]]
chemical_smiles = "CCN(c1nc(-c2ccc(F)cc2)c(C#N)s1)c1c2nc(-c3cnc(N4CCCS4(=O)=O)nc3)ccc2nn1CC"
assayed_system = "hERG potassium channel (Homo sapiens (Human))"
endpoint_result = "< 4.52"

[[record]]
chemical_smiles = "CCN(c1nc(-c2ccc(F)cc2)c(C#N)s1)c1c2nc(-c3cnc(N4CCC(O)CC4)nc3)ccc2nn1CC"
assayed_system = "hERG potassium channel (Homo sapiens (Human))"
endpoint_result = "< 4.52"


Per the record, CCN(c1nc(-c2ccc(F)cc2)c(C#N)s1)c1c2nc(-c3cnc(N4CCOCC4)nc3)ccc2nn1CC has pIC50 of < 4.52

----------
assayed-system: UniProt:Q13822
Examples of compounds with documented IC50 follow.
Write the answer as a number in µM, unit excluded.

[[record]]
compound = "CCc1nc2ccc(-c3cnc(CC(=O)N4CC[C@H](O)C4)cn3)cn2c1N(C)c1nc(-c2ccc(F)cc2)c(C#N)s1 [Example 11]"
quantity_measured = "IC50"
u = "µM"
endpoint_result = 0.025

[[record]]
compound = "CCc1nc2ccc(-c3cnc(CC(=O)NCC4CCC(=O)N4)cn3)cn2c1N(C)c1nc(-c2ccc(F)cc2)c(C#N)s1 (stereo not shown) [Example 14]"
quantity_measured = "IC50"
u = "µM"
endpoint_result = 0.042


Per the record, CCc1nc2ccc(-c3ccc(CC(=O)N4CC(O)C4)cn3)cn2c1N(C)c1nc(-c2ccc(F)cc2)c(C#N)s1 [Example 7] has IC50 of 0.025

Per the record, CCc1nc2ccc(-c3cnc(CC(=O)N4CC(O)C4)c(F)c3)cn2c1N(C)c1nc(-c2ccc(F)cc2)c(C#N)s1 [Example 3] has IC50 of 0.0052

All figures here come from patent US20230295159A1.
